Values compiled from PubChem BioAssay (NCI).

Experiment: NCI Yeast Anticancer Drug Screen. Data for the cln2 rad14 strain (AID 165);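 further: 0% = growth equal to vehicle treated cultures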
Conditions: S. cerevisiae cln2 rad14 strain, at 50.0 µM
Protocol: Growth inhibition of yeast strains with defined genetic alterations is measured as a screen for potential anti-cancer activity. Selected strains with alterations in DNA damage repair or cell cycle control were exposed to compounds and growth inhibition was measured relative to vehicle treated controls. The strain used in this assay is cln2 rad14
About 79,000 compounds went through this panel and 15% of them were active in at least one assay; those are over-represented in the sample as a whole. Calls of active or inactive are those of the source. No stated cut-off is given here; in the data, active means growth inhibition above about 70%; inactive means the rest.
Classes used: yes (1) (active), no (0) (inactive)

INSERT INTO assay_data (compound, category) VALUES
  ('C/C(=N\O)c1cc(Br)cc([N+](=O)[O-])c1O', 'no (0)'),
  ('Cc1n(Cc2ccccc2)c2c([n+]1C)C(=O)c1ccccc1C2=O', 'yes (1)'),
  ('Cc1cc(/C=C/C2CCC3CC(C)CCC3N2CCO)c(C)n1-c1ccccc1 (centres undefined)', 'yes (1)'),
  ('CC(C)(C)c1ccc(-c2c3ccccc3cc3ccccc23)cc1', 'no (0)'),
  ('OC(CF)(c1ccc(Cl)cc1)c1ccc(Cl)cc1', 'yes (1)'),
  ('Fc1ccccc1-c1ncc(-c2ccccc2)o1', 'no (0)'),
  ('C/C(=N\NC(=S)N1CCN(c2ccccn2)CC1)c1nccs1', 'yes (1)'),
  ('CCOC(=O)[C@H]1Nc2ccc([N+](=O)[O-])cc2C2c3ccccc3CC21 (some centres undefined)', 'yes (1)'),
  ('C=CCN(CC=C)C(CC(=O)C(C)(C)C)=NCC', 'no (0)'),
  ('O=C(CC(=O)CC(O)(c1ccccc1)c1ccccc1)CC(=O)c1ccccc1', 'yes (1)'),
  ('O=C(CCC(=O)OCCOc1ccccc1)OCCOc1ccccc1', 'no (0)'),
  ('C=CCOC(=O)c1ccc(C(=O)OCC=C)cc1', 'no (0)'),
  ('CC(C)(Cc1nocc1C(C)(C)CC#N)c1cc(CC(C)(C)C2(C)OCCO2)no1', 'no (0)'),
  ('O=C(CCl)Nc1ccc(C(=O)N/N=C/c2ccc(Cl)cc2)cc1', 'no (0)'),
  ('O=C(NNC(=O)c1ccccc1O)c1ccccc1O', 'no (0)'),
  ('CCOC(=O)c1ccc(NCc2ccc3ccccc3n2)cc1', 'no (0)'),
  ('Cc1ccc(S(=O)(=O)NC2CCCCCCC2)cc1', 'no (0)'),
  ('O=[N+]([O-])c1cccc2nc3ccccc3c(NCCN(CCO)CCO)c12', 'yes (1)'),
  ('Fc1ccc2nc3ccccc3nc2c1', 'no (0)'),
  ('O=C1Nc2ccccc2C1(O)C/C(=N/O)c1ccc2ccccc2c1 (centres undefined)', 'no (0)'),
  ('CCOC(=O)C(Cc1ccccc1[N+](=O)[O-])C(=O)OCC', 'no (0)'),
  ('Nc1cc2ccccc2cc1Br', 'no (0)'),
  ('O=C(c1ccco1)N(C(=S)N1CCN(c2ccccn2)CC1)C1CCCCC1', 'yes (1)'),
  ('CCOC(=O)c1c(CN2CCNCC2)nc2ccc(Cl)cc2c1-c1ccccc1', 'no (0)');

----------
test: NCI Yeast Anticancer Drug Screen. Data for the mec2-1 strain (AID 157); settings: S. cerevisiae mec2-1 strain, at 5.0 µM (retest, dose inferred, filed as 0.5), stronger effect = higher value
The panel holds about 79,000 compounds, 15% with a hit somewhere; the sample as a whole holds those more often. Calls of active or inactive are those of the source. No stated cut-off is given here; in the data, active means growth inhibition above about 70%; inactive means the rest.
Measured growth inhibition, listed per entry for reference.
REPORTED_METRIC: growth inhibition

INSERT INTO measurements (molecule, reported_metric, value_observed) VALUES
  ('Cc1nc2ccccc2cc1CCl', 'growth inhibition', '-44% (inactive)'),
  ('CC(C)CCCC(C)C1CCC2C3CC=C4CC([n+]5cccc6ccccc65)CCC4(C)C3CCC12C (stereo not drawn)', 'growth inhibition', '11% (inactive)'),
  ('O=C1C=CC(=O)C(C2OC(=O)C(Br)=C2Br)=C1 (stereo not drawn)', 'growth inhibition', '-21% (inactive)'),
  ('OCC1OC(n2cnc3c(=S)nc[nH]c32)C(O)C1O (stereo not drawn)', 'growth inhibition', '-14% (inactive)'),
  ('c1ccc(C2=NC(c3ccccc3)=NS(S3=NC(c4ccccc4)=NC(c4ccccc4)=N3)=N2)cc1 (stereo not drawn)', 'growth inhibition', '5% (inactive)'),
  ('CC(NC(=O)/C(C#N)=C/c1ccc2[nH]ccc2c1)c1ccccc1 (stereo not drawn)', 'growth inhibition', '1% (inactive)'),
  ('C=C1CC2(CC(c3ccccc3C)OC(c3ccccc3C)C2)OC1=O (stereo not drawn)', 'growth inhibition', '53% (inactive)'),
  ('Cc1ccnc2c1c(=O)c1ccccc1n2C', 'growth inhibition', '4% (inactive)'),
  ('C=CCN(CC=C)C(CC(=O)C(C)(C)C)=NCC', 'growth inhibition', '-7% (inactive)'),
  ('CCN1/C(=C/C=C/C=C/c2sc3ccccc3[n+]2CC)Sc2ccccc21', 'growth inhibition', '98% (active)'),
  ('Nc1cc2ccccc2cc1Br', 'growth inhibition', '30% (inactive)'),
  ('C=C[C@]1(C)C=C2C(O)CC3C(C)(C)CCC[C@]3(CO)C2CC1 (stereo partly drawn)', 'growth inhibition', '13% (inactive)'),
  ('CC(C)Oc1ccc(Nc2ccccc2)cc1', 'growth inhibition', '-9% (inactive)'),
  ('CCN(CCO)CCNc1ccc(C)c2sc3ccccc3c(=O)c12', 'growth inhibition', '13% (inactive)'),
  ('C#CC(C)(C)OC(=O)Nc1ccccc1', 'growth inhibition', '-14% (inactive)'),
  ('Cc1n(Cc2ccccc2)c2c([n+]1C)C(=O)c1ccccc1C2=O', 'growth inhibition', '50% (inactive)'),
  ('O=C(CCl)Nc1ccc(C(=O)N/N=C/c2ccc(Cl)cc2)cc1', 'growth inhibition', '26% (inactive)'),
  ('Nc1ccc(N=Nc2ccccc2)c(N)n1', 'growth inhibition', '-54% (inactive)'),
  ('CN(C)CCC(=O)c1cccc([N+](=O)[O-])c1', 'growth inhibition', '13% (inactive)'),
  ('Cc1cccc2c1Oc1cc(Cl)ccc1C2NC(=O)CCN1CCCCC1 (stereo not drawn)', 'growth inhibition', '-12% (inactive)'),
  ('N#CCCC(CCC#N)(CCC#N)C(=O)c1ccccc1', 'growth inhibition', '-15% (inactive)'),
  ('Cc1nc2cc(Cl)ccc2n1-c1ccccc1', 'growth inhibition', '38% (inactive)'),
  ('O=C1C=CC(=O)C(c2ccc3ccccc3c2)=C1', 'growth inhibition', '96% (active)'),
  ('C[Si]1(C)CN(CCN)C[Si](C)(C)O1', 'growth inhibition', '1% (inactive)'),
  ('O=C(O)c1ccccc1C(=O)O', 'growth inhibition', '-3% (inactive)'),
  ('O=S(=O)(O)c1ccc(NN(c2c(O)ccc3ccccc23)S(=O)(=O)O)cc1', 'growth inhibition', '-5% (inactive)'),
  ('CCCCCCCCCCCCCCCC(=O)NCC[N+](C)(C)C', 'growth inhibition', '52% (inactive)'),
  ('CN(CCN1C(=O)c2cccc3cccc(c23)C1=O)CCN1C(=O)c2cccc3cccc(c23)C1=O', 'growth inhibition', '20% (inactive)'),
  ('CCCCCCCc1c(Cl)nc(Cl)nc1Cl', 'growth inhibition', '12% (inactive)'),
  ('CN(C)Cc1c(O)ccc2ccccc12', 'growth inhibition', '1% (inactive)'),
  ('CCOc1ccc(NC(=O)/C(=C\c2ccc(C)cc2)C(C)=O)cc1', 'growth inhibition', '-2% (inactive)'),
  ('COC1OC2COC(c3ccccc3)OC2C(O)C1OS(=O)(=O)c1ccc(C)cc1 (stereo not drawn)', 'growth inhibition', '0% (inactive)'),
  ('COC(=O)C1C(O)C(C)C(O)C(C)C=C(C)C2=C3C(=C(C)C(=O)c4c(O)c(c(C)c(OC(C)=O)c43)NC(=O)C(C)=C/C=C\C(C)C(O)C(C)C1O)OCO2 (stereo not drawn)', 'growth inhibition', '-14% (inactive)'),
  ('CN1CCCc2cc(/C=C\c3ccnc4ccccc34)ccc21', 'growth inhibition', '-10% (inactive)'),
  ('O/N=C/c1cc(I)c(O)c(I)c1', 'growth inhibition', '97% (active)'),
  ('CC1(C)C(c2ccccc2)=Nc2ccccc21', 'growth inhibition', '3% (inactive)'),
  ('CCc1nc(N)nc(N)c1-c1ccc(Cl)c(N=[N+]=[N-])c1', 'growth inhibition', '18% (inactive)'),
  ('CCN1CCC(O)(c2ccc(Oc3ccccc3)cc2)C(C(=O)c2ccc(Oc3ccccc3)cc2)C1 (stereo not drawn)', 'growth inhibition', '-10% (inactive)'),
  ('c1ccc(-c2nc3ccccc3[nH]2)cc1', 'growth inhibition', '-3% (inactive)'),
  ('CCCCCCCCCCNC1CC(OC2CC(O)(C(O)CO)Cc3c(O)c4c(c(O)c32)C(=O)c2c(OC)cccc2C4=O)OC(C)C1O (stereo not drawn)', 'growth inhibition', '99% (active)'),
  ('Cc1ccc2c(c1)C1(C)OC(C=CC1=O)O2 (stereo not drawn)', 'growth inhibition', '97% (active)'),
  ('Fc1ccccc1-c1ncc(-c2ccccc2)o1', 'growth inhibition', '60% (inactive)'),
  ('CC(=O)Nc1nc([N+](=O)[O-])c(C(C)C)s1', 'growth inhibition', '-2% (inactive)'),
  ('O=C1NC(=O)c2cc([N+](=O)[O-])ccc21', 'growth inhibition', '0% (inactive)'),
  ('CCC[CH2][Sn]1([CH2]CCC)[O]N=C(c2ccccc2)C(c2ccccc2)[O]1 (stereo not drawn)', 'growth inhibition', '20% (inactive)'),
  ('O=Nc1ccc(C=C2C(=O)C=CC2=O)cc1', 'growth inhibition', '99% (active)'),
  ('CCn1c(-c2c(Cl)cc(O)cc2Cl)cc2c(Cl)cc(O)cc21', 'growth inhibition', '97% (active)'),
  ('CCOP(=O)(OCC)C(C)(CC)NC(=O)C(C(F)(F)F)C(F)(F)F (stereo not drawn)', 'growth inhibition', '23% (inactive)');
